Target: HDAC6 (Homo sapiens, UniProt Q9UBN7)
Sequence (Q9UBN7 whole entry, canonical isoform): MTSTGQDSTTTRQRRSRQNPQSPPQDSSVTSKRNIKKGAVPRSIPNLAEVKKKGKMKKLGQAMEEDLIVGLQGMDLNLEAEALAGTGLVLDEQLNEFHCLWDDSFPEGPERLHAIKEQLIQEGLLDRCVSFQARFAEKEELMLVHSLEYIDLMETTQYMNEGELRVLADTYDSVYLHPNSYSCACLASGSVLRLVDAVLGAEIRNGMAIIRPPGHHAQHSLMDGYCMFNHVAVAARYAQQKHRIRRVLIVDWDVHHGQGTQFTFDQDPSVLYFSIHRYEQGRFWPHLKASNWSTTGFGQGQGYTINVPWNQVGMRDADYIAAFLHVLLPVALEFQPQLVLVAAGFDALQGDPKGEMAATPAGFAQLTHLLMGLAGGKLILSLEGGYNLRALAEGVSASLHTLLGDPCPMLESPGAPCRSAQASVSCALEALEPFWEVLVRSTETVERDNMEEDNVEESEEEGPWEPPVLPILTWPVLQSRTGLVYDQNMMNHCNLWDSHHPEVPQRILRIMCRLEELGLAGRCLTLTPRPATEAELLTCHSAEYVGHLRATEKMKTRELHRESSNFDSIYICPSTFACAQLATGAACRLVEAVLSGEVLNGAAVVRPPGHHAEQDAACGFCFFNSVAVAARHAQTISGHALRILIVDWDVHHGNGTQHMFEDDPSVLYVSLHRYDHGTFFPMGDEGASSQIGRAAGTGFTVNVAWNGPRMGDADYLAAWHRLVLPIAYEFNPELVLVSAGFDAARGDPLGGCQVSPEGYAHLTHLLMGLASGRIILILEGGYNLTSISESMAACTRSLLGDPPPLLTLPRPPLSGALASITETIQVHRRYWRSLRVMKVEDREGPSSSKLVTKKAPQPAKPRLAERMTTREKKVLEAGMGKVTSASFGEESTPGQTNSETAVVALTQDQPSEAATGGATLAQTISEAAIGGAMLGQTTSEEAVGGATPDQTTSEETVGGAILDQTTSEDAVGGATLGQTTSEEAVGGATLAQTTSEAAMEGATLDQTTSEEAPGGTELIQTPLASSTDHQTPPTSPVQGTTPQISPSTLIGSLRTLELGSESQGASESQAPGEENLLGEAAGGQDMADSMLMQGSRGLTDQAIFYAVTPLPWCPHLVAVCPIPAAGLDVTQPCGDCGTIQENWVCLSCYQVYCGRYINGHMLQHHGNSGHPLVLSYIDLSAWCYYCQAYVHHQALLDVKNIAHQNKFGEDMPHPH
Experiment: Inhibition of histone deacetylase isoforms, HDAC6
property-name: IC50

# molecule, readout-value
measured = [
    ("O=C(NO)c1ccc(NC(=O)[C@H](Cc2ccc3ccccc3c2)NC(=O)c2ccc3c(c2)OCO3)cc1 [Compound t]", "618 nM"),
    ("O=C(NO)c1ccc(NC(=O)[C@H](Cc2ccc3ccccc3c2)NC(=O)c2ccccc2)cc1 [Compound g]", "3620 nM"),
]

---

Target: HDAC2 (Homo sapiens, UniProt Q92769)
Sequence (Q92769 whole entry, canonical isoform): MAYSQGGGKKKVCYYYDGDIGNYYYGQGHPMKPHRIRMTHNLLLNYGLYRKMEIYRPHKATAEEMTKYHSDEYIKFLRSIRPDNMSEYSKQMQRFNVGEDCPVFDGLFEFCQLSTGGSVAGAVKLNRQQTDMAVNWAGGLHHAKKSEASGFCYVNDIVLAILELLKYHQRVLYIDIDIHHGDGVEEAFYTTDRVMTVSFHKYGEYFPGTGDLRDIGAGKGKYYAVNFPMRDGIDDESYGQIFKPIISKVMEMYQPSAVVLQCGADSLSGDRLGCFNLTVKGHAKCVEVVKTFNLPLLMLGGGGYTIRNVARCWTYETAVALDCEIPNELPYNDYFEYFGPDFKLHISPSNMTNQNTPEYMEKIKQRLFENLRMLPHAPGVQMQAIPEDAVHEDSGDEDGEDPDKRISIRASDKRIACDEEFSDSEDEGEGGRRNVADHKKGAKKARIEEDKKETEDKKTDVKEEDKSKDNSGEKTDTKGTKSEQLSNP
Assay: Inhibition of histone deacetylase isoforms, HDAC2
property-name: IC50 (nM)

# smiles-string, target-or-test-system, value-units, readout-value
measured = [
    ("O=C(NO)c1ccc(NC(=O)[C@H](Cc2ccc3ccccc3c2)NC(=O)c2ccccc2)cc1", "HDAC2 (Homo sapiens, UniProt Q92769)", "nM", 12),
    ("O=C(NO)c1ccc(NC(=O)[C@H](Cc2ccc3ccccc3c2)NC(=O)c2ccc3c(c2)OCO3)cc1", "HDAC2 (Homo sapiens, UniProt Q92769)", "nM", 29.5),
]
